Data provenance is BindingDB's records for doi:10.1021/jm00020a011.

- experimentNotes: Binding affinity towards Acetylcholinesterase
pKi: −log10 of the molar value.
endpointLabel: pKi

I have this molecule here, `CC(C)[C@H](NC(=O)[C@@H]1CCCN1C(=O)[C@@H](NC(=O)c1ccc(C(=O)NS(=O)(=O)c2ccc(Cl)cc2)cc1)C(C)C)C(=O)c1nc2cc(C(N)=O)ccc2o1` , and I need its recorded pKi.
< 2.70
